- Target entity: T1, Roquin-1 extROQ (mouse, UniProt Q4VGL6 89-404)
- T1 sequence: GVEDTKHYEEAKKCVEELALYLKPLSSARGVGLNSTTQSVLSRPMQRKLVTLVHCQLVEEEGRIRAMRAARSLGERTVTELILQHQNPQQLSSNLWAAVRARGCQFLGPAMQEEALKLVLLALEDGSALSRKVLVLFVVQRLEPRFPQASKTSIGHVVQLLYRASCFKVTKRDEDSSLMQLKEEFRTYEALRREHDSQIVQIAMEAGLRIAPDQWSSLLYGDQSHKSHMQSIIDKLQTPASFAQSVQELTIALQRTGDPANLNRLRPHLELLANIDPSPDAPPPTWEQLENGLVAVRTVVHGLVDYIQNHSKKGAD
- Measurement notes: EMSA; triplicate; EMSA: 150 mM NaCl, 20 mM Tris pH 7.0, 2 mM TCEP, 1 mM MgCl2, 0.6 ug yeast tRNAPhe per 20 ul, 15 min; temperature not stated; gel in 1x TB
- Experimental setup: protein: recombinant; tags: tag removed by TEV; label: 5' 32P (EMSA); hairpin, apical hexaloop
Measurement label: Kd (nM)
# number only, unit nM dropped from output

Quick one: Kd of GCCUGCCAGUACCCUCCACACCGUUCUAGGUGCUGGGCUGGCUCUGGGC (structured_RNA) [Ox40 ADE] ?
171
